B1: library; numbered along this chain (parent)
chain: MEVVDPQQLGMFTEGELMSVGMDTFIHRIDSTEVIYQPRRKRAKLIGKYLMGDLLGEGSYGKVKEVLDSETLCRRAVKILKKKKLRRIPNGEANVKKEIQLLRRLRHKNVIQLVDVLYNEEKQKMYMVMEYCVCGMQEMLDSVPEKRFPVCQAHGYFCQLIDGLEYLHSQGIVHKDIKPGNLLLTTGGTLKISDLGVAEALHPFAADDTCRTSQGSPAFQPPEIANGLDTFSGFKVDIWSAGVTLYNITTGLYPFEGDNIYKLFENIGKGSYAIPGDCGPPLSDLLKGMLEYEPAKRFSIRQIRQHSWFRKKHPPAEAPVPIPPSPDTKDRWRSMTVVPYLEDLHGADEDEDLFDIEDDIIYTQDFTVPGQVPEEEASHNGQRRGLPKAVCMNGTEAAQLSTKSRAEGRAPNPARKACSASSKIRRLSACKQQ

Variants of: B1
Assay: STK11 functional score (HeLa growth suppression), rescaled enrichment; synonymous median = 1, nonsense median = 0 (normalised score)
Conditions: with HeLa; variant type: missense
In this section, each of the variants is paired with its reported STK11 functional score.
Experimental endpoint: STK11 functional score

> print(dat)
    sequence.variant   experimental.endpoint  measured.number
 1             Q159E  STK11 functional score             1.25
 2             P323W  STK11 functional score            0.993
 3             A153E  STK11 functional score            0.243
 4             E376Q  STK11 functional score            0.896
 5              R40M  STK11 functional score             1.28
 6             Q371C  STK11 functional score             1.36
 7             N119G  STK11 functional score            0.965
 8             I356F  STK11 functional score             1.15
 9             D355R  STK11 functional score             1.43
10             V243A  STK11 functional score            0.996
11             G385V  STK11 functional score            0.433
12              K96T  STK11 functional score             1.05
13              Y36G  STK11 functional score             1.55
14             V243E  STK11 functional score            0.204
15             L140C  STK11 functional score            0.555
16             S213G  STK11 functional score             1.37
17              N94H  STK11 functional score             1.35
18             L353F  STK11 functional score             1.27
19              L54T  STK11 functional score             1.47
20              K41R  STK11 functional score              1.6
21             P314T  STK11 functional score             1.54
22              K41Q  STK11 functional score            0.893
